Test system: HO-1
test.details: HO-1 expression by ELISA in LX-2 cell lysates
Type: cell-based, human
conditions: Homo sapiens, LX-2, 24 h, 5 μM, 24 h, LX-2 cells lysate, vs control group, mean ± SD of triplicate
property.name: fold induction at 5 µM

Example entries begin here.
{"columns": ["compound", "fold induction at 5 µM"],
 "data": [
  ["O=C(/C=C/C(=O)Nc1ccccc1)Nc1ccccc1 [Compound 1l, (E)-N, N’-Diphenyl-2-butenediamide]", 9.74],
  ["O=C(/C=C/C(=O)Oc1ccc(I)cc1)Oc1ccc(I)cc1", 7.7],
  ["O=C(/C=C/C(=O)NCc1ccccc1)NCc1ccccc1 [Compound 1m, (E)-N, N’-Diphenylmethyl-2-butenediamide]", "> 14"],
  ["O=C(/C=C/C(=O)Oc1ccccc1)Oc1ccccc1", 7.93]
]}

Look up fold induction at 5 µM for this compound: `O=C(/C=C/C(=O)OCCc1ccccc1)OCCc1ccccc1`
5.91

----------
Tested on: LX-2 cells
test.details: MTT assay of cell viability
Assay type: cell-based, human
conditions: Homo sapiens
pIC50: −log10 of the molar value. Structures can show the parent of a compound that is named as a salt.
Task for the reader: assign each of the following molecules its reported pIC50.

Example entries begin here.
{"columns": ["molecule", "pIC50"],
 "data": [
  ["O=C(/C=C/C(=O)Oc1ccccc1C(=O)O)Oc1ccccc1C(=O)O [Compound 1h]", "< 4.30"],
  ["N#Cc1ccc(OC(=O)/C=C/C(=O)Oc2ccc(C#N)cc2)cc1 [Compound 1e]", "< 4.30"],
  ["COC(=O)/C=C/C(=O)OC [DMF, dimethyl fumarate]", "< 4.30"],
  ["COC(=O)/C=C/C(=O)Oc1ccccc1 [Compound 2a]", "< 4.30"],
  ["O=C(/C=C/C(=O)Oc1ccc(I)cc1)Oc1ccc(I)cc1 [Compound 1c]", 4.68],
  ["O=C(/C=C/C(=O)Oc1ccc(Cl)cc1)Oc1ccc(Cl)cc1 [Compound 1b]", "< 4.30"],
  ["O=C(/C=C/C(=O)Oc1ccccc1)Oc1ccccc1 [Compound 1a]", "< 4.30"],
  ["COC(=O)/C=C/C(=O)OCc1ccccc1 [Compound 2b]", "< 4.30"],
  ["O=C(/C=C/C(=O)OCCCc1ccccc1)OCCCc1ccccc1 [Compound 1k]", "< 4.30"],
  ["O=C(/C=C/C(=O)OCc1ccccc1)OCc1ccccc1 [Compound 1i]", 4.75]
]}

Batch of 4 molecules: report pIC50 for each.
1. COC(=O)/C=C/C(=O)OCCc1ccccc1 [Compound 2c]
2. O=C(/C=C/C(=O)OCCc1ccccc1)OCCc1ccccc1 [Compound 1j]
3. COc1ccc(OC(=O)/C=C/C(=O)Oc2ccc(OC)cc2)cc1 [Compound 1g]
4. Cc1ccc(OC(=O)/C=C/C(=O)Oc2ccc(C)cc2)cc1 [Compound 1f]

1: < 4.30; 2: < 4.30; 3: 4.65; 4: < 4.30

Batch of 3 molecules: report pIC50 for each.
1. O=C(/C=C/C(=O)Nc1ccccc1)Nc1ccccc1 [Compound 1l, (E)-N, N’-Diphenyl-2-butenediamide]
2. O=C(/C=C/C(=O)Oc1ccc(C(F)(F)F)cc1)Oc1ccc(C(F)(F)F)cc1 [Compound 1d]
3. O=C(/C=C/C(=O)NCc1ccccc1)NCc1ccccc1 [Compound 1m, (E)-N, N’-Diphenylmethyl-2-butenediamide]

["< 4.30", "< 4.30", 4.73]

----------
Task for the reader: assign each of the following molecules its reported melting point.

Example entries begin here.
{"columns": ["molecule", "melting point"],
 "data": [
  ["COC(=O)/C=C/C(=O)Oc1ccccc1", "54 to 55 °C"],
  ["COC(=O)/C=C/C(=O)OCCc1ccccc1", "44 to 45 °C"],
  ["O=C(/C=C/C(=O)OCc1ccccc1)OCc1ccccc1", "59 to 61 °C"],
  ["O=C(/C=C/C(=O)Oc1ccccc1)Oc1ccccc1", "164 to 165 °C"],
  ["O=C(/C=C/C(=O)Oc1ccc(I)cc1)Oc1ccc(I)cc1", "266 to 267 °C"],
  ["N#Cc1ccc(OC(=O)/C=C/C(=O)Oc2ccc(C#N)cc2)cc1", "230 to 232 °C"],
  ["Cc1ccc(OC(=O)/C=C/C(=O)Oc2ccc(C)cc2)cc1", "160 to 161 °C"],
  ["O=C(/C=C/C(=O)Oc1ccc(C(F)(F)F)cc1)Oc1ccc(C(F)(F)F)cc1", "122 to 123 °C"],
  ["O=C(/C=C/C(=O)Oc1ccc(Cl)cc1)Oc1ccc(Cl)cc1", "178 to 179 °C"],
  ["O=C(/C=C/C(=O)OCCc1ccccc1)OCCc1ccccc1", "77 to 79 °C"]
]}

Batch of 3 molecules: report melting point for each.
1. COc1ccc(OC(=O)/C=C/C(=O)Oc2ccc(OC)cc2)cc1
2. O=C(/C=C/C(=O)Nc1ccccc1)Nc1ccccc1 [Compound 1l, (E)-N, N’-Diphenyl-2-butenediamide]
3. COC(=O)/C=C/C(=O)OCc1ccccc1

180 to 181 °C
332 to 333 °C
50 to 51 °C

----------
Test system: HO-1
test.details: HO-1 expression by ELISA in LX-2 cell lysates
Assay type: cell-based, human
conditions: Homo sapiens, LX-2, 24 h, 5 μM, 24 h, LX-2 cells lysate, vs control group, mean ± SD of triplicate
Counter-ions that a name gives are not always drawn.
Records here are stratified by fold induction at 5 µM; strata: low range = under 4, mid range = from 4 up to 7, high range = 7 and over

Examples with answers:
{"columns": ["compound", "category"],
 "data": [
  ["COc1ccc(OC(=O)/C=C/C(=O)Oc2ccc(OC)cc2)cc1", "low range"],
  ["N#Cc1ccc(OC(=O)/C=C/C(=O)Oc2ccc(C#N)cc2)cc1", "mid range"],
  ["O=C(/C=C/C(=O)Oc1ccc(Cl)cc1)Oc1ccc(Cl)cc1", "high range"],
  ["O=C(/C=C/C(=O)OCCCc1ccccc1)OCCCc1ccccc1", "mid range"],
  ["O=C(/C=C/C(=O)Oc1ccccc1C(=O)O)Oc1ccccc1C(=O)O", "high range"]
]}

Sort COC(=O)/C=C/C(=O)OC [DMF, dimethyl fumarate] into one of the categories.
high range

Sort `O=C(/C=C/C(=O)Oc1ccc(C(F)(F)F)cc1)Oc1ccc(C(F)(F)F)cc1` into one of the categories.
low range

Sort `O=C(/C=C/C(=O)OCc1ccccc1)OCc1ccccc1` into one of the categories.
mid range

----------
Task for the reader: assign each of the following compounds its reported fold induction at 10 µM.
Test system: HO-1
test.details: HO-1 expression by ELISA in LX-2 cell lysates
Type: cell-based, human
conditions: Homo sapiens, LX-2, 24 h, 10 μM, 24 h, LX-2 cells lysate, vs control group, mean ± SD of triplicate
Where a name gives a salt, the structure may show the parent alone.
Give bare numbers.

Example entries begin here.
{"columns": ["compound", "fold induction at 10 µM"],
 "data": [
  ["O=C(/C=C/C(=O)OCCCc1ccccc1)OCCCc1ccccc1 [Compound 1k]", 9.55],
  ["O=C(/C=C/C(=O)Oc1ccc(C(F)(F)F)cc1)Oc1ccc(C(F)(F)F)cc1 [Compound 1d]", 0.68],
  ["O=C(/C=C/C(=O)Nc1ccccc1)Nc1ccccc1 [Compound 1l, (E)-N, N’-Diphenyl-2-butenediamide]", 10.2],
  ["N#Cc1ccc(OC(=O)/C=C/C(=O)Oc2ccc(C#N)cc2)cc1 [Compound 1e]", 6.5],
  ["COC(=O)/C=C/C(=O)OCc1ccccc1 [Compound 2b]", 0.28],
  ["O=C(/C=C/C(=O)Oc1ccc(Cl)cc1)Oc1ccc(Cl)cc1 [Compound 1b]", 11.7],
  ["O=C(/C=C/C(=O)Oc1ccccc1)Oc1ccccc1 [Compound 1a]", 8.16],
  ["O=C(/C=C/C(=O)Oc1ccccc1C(=O)O)Oc1ccccc1C(=O)O [Compound 1h]", 9.95],
  ["COC(=O)/C=C/C(=O)OC [DMF, dimethyl fumarate]", 8.3],
  ["O=C(/C=C/C(=O)Oc1ccc(I)cc1)Oc1ccc(I)cc1 [Compound 1c]", 8.13]
]}

Please turn your attention to the following entry.
Look up fold induction at 10 µM for this compound: O=C(/C=C/C(=O)OCc1ccccc1)OCc1ccccc1 [Compound 1i]
7.34

FYI, the data here is from paper PMC7765375.
